- assayed system: NR2B subunit of NMDA receptor (Rattus norvegicus)
- Construct: gene Grin2b; native NMDA receptor in rat cerebral cortex membranes; with NR1
- Sequence (Q00960 27-1482, other chains not shown): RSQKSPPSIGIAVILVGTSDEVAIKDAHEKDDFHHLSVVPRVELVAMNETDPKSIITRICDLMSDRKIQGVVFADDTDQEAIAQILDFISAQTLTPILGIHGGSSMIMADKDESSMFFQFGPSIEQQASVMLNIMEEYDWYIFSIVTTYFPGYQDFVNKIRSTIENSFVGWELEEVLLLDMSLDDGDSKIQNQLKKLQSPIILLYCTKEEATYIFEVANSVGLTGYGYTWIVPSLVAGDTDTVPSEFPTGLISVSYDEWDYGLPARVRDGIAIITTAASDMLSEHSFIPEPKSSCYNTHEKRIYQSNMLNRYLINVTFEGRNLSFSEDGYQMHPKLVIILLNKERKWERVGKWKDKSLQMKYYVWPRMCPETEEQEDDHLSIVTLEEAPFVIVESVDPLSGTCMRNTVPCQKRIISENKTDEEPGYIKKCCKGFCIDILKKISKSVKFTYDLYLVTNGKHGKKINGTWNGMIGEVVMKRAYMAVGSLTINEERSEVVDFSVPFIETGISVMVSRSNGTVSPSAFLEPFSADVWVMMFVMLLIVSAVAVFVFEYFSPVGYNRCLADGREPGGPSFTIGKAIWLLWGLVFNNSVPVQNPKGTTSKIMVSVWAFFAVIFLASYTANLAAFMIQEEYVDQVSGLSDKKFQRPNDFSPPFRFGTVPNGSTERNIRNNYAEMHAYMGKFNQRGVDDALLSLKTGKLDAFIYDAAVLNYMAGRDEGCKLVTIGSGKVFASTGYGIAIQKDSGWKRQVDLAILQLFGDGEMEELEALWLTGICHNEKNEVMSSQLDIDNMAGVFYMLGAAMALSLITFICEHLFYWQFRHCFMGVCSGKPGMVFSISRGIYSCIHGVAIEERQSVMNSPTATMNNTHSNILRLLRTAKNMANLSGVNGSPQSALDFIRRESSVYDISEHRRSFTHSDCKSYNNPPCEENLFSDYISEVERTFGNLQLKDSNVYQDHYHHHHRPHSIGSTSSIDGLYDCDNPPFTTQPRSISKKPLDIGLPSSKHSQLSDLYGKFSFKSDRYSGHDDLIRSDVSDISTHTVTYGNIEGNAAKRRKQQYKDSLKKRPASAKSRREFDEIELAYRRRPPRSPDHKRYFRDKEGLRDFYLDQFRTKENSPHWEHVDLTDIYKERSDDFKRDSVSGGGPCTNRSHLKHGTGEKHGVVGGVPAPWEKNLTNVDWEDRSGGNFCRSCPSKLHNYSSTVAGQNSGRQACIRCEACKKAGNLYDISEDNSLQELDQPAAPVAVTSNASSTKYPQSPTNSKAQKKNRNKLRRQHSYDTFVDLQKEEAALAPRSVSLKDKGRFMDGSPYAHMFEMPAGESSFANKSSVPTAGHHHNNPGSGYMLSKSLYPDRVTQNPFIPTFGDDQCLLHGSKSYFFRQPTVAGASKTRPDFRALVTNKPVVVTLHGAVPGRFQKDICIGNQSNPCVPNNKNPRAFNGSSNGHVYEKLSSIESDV
- Type: binding
pKi: −log10 of the molar value.

{"columns": ["test smiles", "pKi"],
 "data": [
  ["N=C(N)c1ccc2cc(OC(=O)c3ccc(N=C(N)N)cc3)ccc2c1", 5.38]
]}
